# Test system: OVCAR4
# Method summary: Euclidean distance of Cell Painting phenotypic profile (signed KS, 77 features) to DMSO centroid (dimensionless distance); higher = stronger phenotypic change vs DMSO (phenoactivity)
# Setup conditions: 48 h; 5 or 10 uM (library dependent)
Structures can show the parent of a compound that is named as a salt.
Record form. Attribute: Euclidean distance. Fill in for each entry.

Examples with their reported Euclidean distance follow.
Compound	Target or test system	Euclidean distance
CC[C@@H]1/C=C/C=C/C[C@H](C)[C@H](O)[C@](C)(O)C(=O)[C@H](C)[C@@H](O)[C@H](C)C(=O)[C@H](C)[C@@H](O)[C@H](C)/C=C/C(=O)O[C@H]2[C@@H](C)[C@@H](CC1)O[C@@]1(CC[C@@H](C)[C@@H](C[C@H](C)O)O1)[C@@H]2C	OVCAR4	1.22
COCC1(CO)C(=O)C2CCN1CC2 (centres undefined)	OVCAR4	2.18

For every listed record, write down its Euclidean distance.
1. Cc1cc(C(C#N)c2ccc(Cl)cc2)c(Cl)cc1NC(=O)c1cc(I)cc(I)c1O (centres undefined)
2. COC(=O)C1=CCCN(C)C1 [Arecoline HBr]
3. O=c1ccc2ccc3occc3c2o1
4. NCC1(CC(=O)O)CCCCC1 [Gabapentin HCl]

Response given:
[0.648, 1.12, 1.1, 0.892]

For every listed record, write down its Euclidean distance.
1. COC(=O)C1=CCCN(C)C1 [Arecoline]
2. COC[C@H]1OC(=O)c2coc3c2[C@@]1(C)C1=C(C3=O)[C@@H]2CCC(=O)[C@@]2(C)C[C@H]1OC(C)=O
3. CCC1(c2ccc(N)cc2)CCC(=O)NC1=O (centres undefined) [Aminoglutethimide]

Response given:
1: 0.957; 2: 1.14; 3: 1.67

* * *

# System: 786-O
# Method summary: Euclidean distance of Cell Painting phenotypic profile (signed KS, 77 features) to DMSO centroid (dimensionless distance); higher = stronger phenotypic change vs DMSO (phenoactivity)
# Setup conditions: 48 h; 5 or 10 uM (library dependent)
Structures can show the parent of a compound that is named as a salt.
Assay endpoint: Euclidean distance
One number for each entry.

Examples with their reported Euclidean distance follow.
In [3]: df
Out[3]:
                                   compound  data_value
0  CC(Cc1ccc(O)cc1)NCC(O)c1cc(O)cc(O)c1 (centres undefined) [Fenoterol hydrobromide]       0.772
1        O=P(O)(NCCCl)NCCCl [Palifosfamide]        1.23
2  C[C@@]12N[C@@H](Cc3ccccc31)c1ccccc12 [(-)-MK 801 Maleate]           1
3  Cn1c(CCCCCCC(=O)NO)nc2cc(N(CCCl)CCCl)ccc21 [Tinostamustine(EDO-S101)]        3.61
4  CN(C)C(=O)Oc1cc(OC(=O)N(C)C)cc(C(O)CNC(C)(C)C)c1 (centres undefined) [Bambuterol HCl]       0.701

For every listed record, write down its Euclidean distance.
1. O=C1C=C2C=C[C@@H]3C[C@@]2(O1)[C@H]1CCCCN31
2. CCN(C)C(=O)Oc1cccc([C@H](C)N(C)C)c1 [Rivastigmine Tartrate]
3. CN1[C@@H]2CC[C@H]1C[C@@H](OC(=O)[C@H](CO)c1ccccc1)C2
4. CC(C)(O)C(Cl)(Cl)Cl

Response given:
[0.99, 0.824, 0.984, 1.34]

* * *

Record form. Attribute: Euclidean distance. Fill in for each entry.
# Tested on: 786-O
# Method summary: Euclidean distance of Cell Painting phenotypic profile (signed KS, 77 features) to DMSO centroid (dimensionless distance); higher = stronger phenotypic change vs DMSO (phenoactivity)
# Setup conditions: 48 h; 5 or 10 uM (library dependent)
Structures can show the parent of a compound that is named as a salt.
One number for each entry.

For every listed record, write down its Euclidean distance.
1. C[C@H]1CC(=O)C[C@@H]2CC[C@H]3[C@@H]4CC[C@H](O)[C@@]4(C)CC[C@@H]3[C@]21C
2. O=c1ccc2ccc3occc3c2o1
3. CCc1c(C(=O)C(N)=O)c2c(OCC(=O)O)cccc2n1Cc1ccccc1

Response given:
1.38
1.25
0.933

For every listed record, write down its Euclidean distance.
1. CCCN1C[C@H](CSC)C[C@@H]2c3cccc4[nH]cc(c34)C[C@H]21 [Pergolide Mesylate]
2. CCOC(=O)c1cncn1[C@H](C)c1ccccc1 [Etomidate]

Response given:
[1.01, 2.62]

For every listed record, write down its Euclidean distance.
1. CN1C(=O)COc2c(C(=O)NC3CN4CCC3CC4)cc(Cl)cc21 (centres undefined) [Azasetron HCl]
2. Cl[TeH]1(Cl)(Cl)OCCO1.N

Response given:
1: 0.735; 2: 1.48

For every listed record, write down its Euclidean distance.
1. COC(=O)C[C@](O)(CCC(C)(C)O)C(=O)O[C@@H]1C(OC)=C[C@]23CCCN2CCc2cc4c(cc2[C@H]13)OCO4
2. CN(C)C(=O)Oc1ccc[n+](C)c1 [Pyridostigmine Bromide]

Response given:
[3.42, 0.816]

* * *

# Test system: 786-O
# Method summary: Euclidean distance of Cell Painting phenotypic profile (signed KS, 77 features) to DMSO centroid (dimensionless distance); higher = stronger phenotypic change vs DMSO (phenoactivity)
# Setup conditions: 48 h; 5 or 10 uM (library dependent)
Counter-ions that a name gives are not always drawn.
Assay endpoint: Euclidean distance

Examples with their reported Euclidean distance follow.
>>> print(df.to_string())
                                   molecule  target_or_test_system      assay_endpoint  data_value
0  N#Cc1nn(-c2c(Cl)cc(C(F)(F)F)cc2Cl)c(N)c1[S+]([O-])C(F)(F)F (centres undefined)                  786-O  Euclidean distance       0.855
1  CN1[C@@H]2CC[C@H]1C[C@@H](OC(=O)C(CO)c1ccccc1)C2 (some centres undefined) [Atropine sulfate]                  786-O  Euclidean distance       0.994
2  O=C(O[C@H]1C[C@H]2CC[C@@H](C1)[N+]21CCCC1)C(O)(c1ccccc1)c1ccccc1 [Trospium chloride]                  786-O  Euclidean distance       0.712

Euclidean distance on 786-O for [O-][n+]1ccccc1[S-].[O-][n+]1ccccc1[S-].[Zn+2] is 6.27

* * *

# System: FB
# Method summary: Euclidean distance of Cell Painting phenotypic profile (signed KS, 77 features) to DMSO centroid (dimensionless distance); higher = stronger phenotypic change vs DMSO (phenoactivity)
# Setup conditions: 48 h; 5 or 10 uM (library dependent)
Counter-ions that a name gives are not always drawn.
Assay endpoint: Euclidean distance
Numbers only.

For every listed record, write down its Euclidean distance.
1. Cc1ccccc1-n1c(Cn2ncc3c(N)ncnc32)nc2cccc(C)c2c1=O
2. CC(NC(C)(C)C)C(=O)c1cccc(Cl)c1 (stereo not given) [Amfebutamone HCl]
3. CC[C@@H](CO)NC(=O)[C@@H]1C=C2c3cccc4c3c(cn4C)C[C@H]2N(C)C1 [Methysergide Maleate]
4. O=C(O[C@H]1C[C@H]2CC[C@@H](C1)[N+]21CCCC1)C(O)(c1ccccc1)c1ccccc1 [Trospium chloride]
5. Cc1cccc([C@H](C)c2c[nH]cn2)c1C [Dexmedetomidine]
6. CC(CCc1ccccc1)NC(C)C(O)c1ccc(O)cc1 (stereo not given) [Nylidrin Hydrochloride]
7. [O-][n+]1ccccc1[S-].[O-][n+]1ccccc1[S-].[Zn+2] [Zinc Pyrithione]
8. CN1[C@@H]2C[C@@H](OC(=O)[C@H](CO)c3ccccc3)C[C@H]1[C@@H]1O[C@@H]12 [Scopolamine HBr trihydrate]

Response given:
0.901
1.05
0.909
0.927
0.876
1.11
6.01
1.06

* * *

# Test system: FB
# Method summary: Euclidean distance of Cell Painting phenotypic profile (signed KS, 77 features) to DMSO centroid (dimensionless distance); higher = stronger phenotypic change vs DMSO (phenoactivity)
# Setup conditions: 48 h; 5 or 10 uM (library dependent)
Where a name gives a salt, the structure may show the parent alone.
Assay endpoint: Euclidean distance
Answers are plain numbers.

Examples with their reported Euclidean distance follow.
Molecule	Euclidean distance
O=[N+]([O-])c1ncc[nH]1	1.09
O=C1C=C2C=C[C@@H]3C[C@@]2(O1)[C@H]1CCCCN31	1.78
CN1[C@@H]2CC[C@H]1C[C@@H](OC(=O)[C@H](CO)c1ccccc1)C2	0.505
COc1ccc(OC)c(C(O)C(C)N)c1 (centres undefined) [Methoxamine HCl]	1.08

For every listed record, write down its Euclidean distance.
1. CCC(=O)O[C@H]1CC[C@H]2[C@@H]3CC[C@H]4CC(=O)[C@H](C)C[C@]4(C)[C@H]3CC[C@]12C [Drostanolone Propionate]
2. C[C@H]1O[C@H](O[C@H]2[C@H](O)[C@@H](O)[C@@H](O)[C@H](O)[C@@H]2O)[C@@H](N)C[C@@H]1NC(=N)C(=O)O [Kasugamycin hydrochloride]
3. CCc1c(C(=O)C(N)=O)c2c(OCC(=O)O)cccc2n1Cc1ccccc1
4. CC(C)(O)C(Cl)(Cl)Cl
5. CC(Cc1ccc(O)cc1)NCC(O)c1cc(O)cc(O)c1 (centres undefined) [Fenoterol hydrobromide]
6. CC(=O)[C@H]1CC[C@H]2[C@@H]3CC[C@H]4C[C@H](O)CC[C@]4(C)[C@H]3CC[C@]12C
7. NCCc1c[nH]c2ccc(O)cc12 [Serotonin HCl]
8. C/C(=C\c1csc(C)n1)[C@@H]1C[C@@H]2O[C@]2(C)CCC[C@H](C)[C@H](O)[C@@H](C)C(=O)C(C)(C)[C@@H](O)CC(=O)O1

Response given:
0.585
1.2
0.633
0.61
0.734
1.22
1.12
2.82

For every listed record, write down its Euclidean distance.
1. CC(=O)O[C@H]1C[C@@H]2CC[C@@H]3[C@H](CC[C@@]4(C)[C@H]3C[C@H]([N+]3(C)CCCCC3)[C@@H]4OC(C)=O)[C@@]2(C)C[C@@H]1[N+]1(C)CCCCC1 [Pancuronium dibromide]
2. CC(C)(C)NCC(O)c1ccccc1Cl (centres undefined) [Tulobuterol hydrochloride]

Response given:
1: 0.954; 2: 0.711
